# Test system: HIV-1LPV1μM
# procedure text: microbe, parasite or virus in culture
# Type: cell-based
# experimental context: Human immunodeficiency virus 1, MT4, read-out: IC50 against HIV-1LPV1μM
pIC50: −log10 of the molar value.
Parameter pIC50: see the listing below.

molecule	operator symbol	pIC50
CC(C)(C)NC(=O)[C@@H]1C[C@@H]2CCCC[C@@H]2CN1C[C@@H](O)[C@H](Cc1ccccc1)NC(=O)[C@H](CC(N)=O)NC(=O)c1ccc2ccccc2n1	=	7.49
CC(C)CN(CC(O)C(Cc1ccccc1)NC(=O)OC1COC2OCCC12)S(=O)(=O)c1ccc2c(c1)OCO2 (centres unmarked)	=	8.12
CC(C)(C)NC(=O)[C@@H]1CN(Cc2cccnc2)CCN1C[C@@H](O)C[C@@H](Cc1ccccc1)C(=O)N[C@H]1c2ccccc2C[C@H]1O	<	6.00
CC(C)CN(C[C@@H](O)[C@H](Cc1ccccc1)NC(=O)O[C@H]1CCOC1)S(=O)(=O)c1ccc(N)cc1	=	6.51
COC(=O)N[C@H](C(=O)N[C@@H](Cc1ccccc1)[C@@H](O)CN(Cc1ccc(-c2ccccn2)cc1)NC(=O)[C@@H](NC(=O)OC)C(C)(C)C)C(C)(C)C	=	7.40

###

# assayed target: HIV-1 protease (Human immunodeficiency virus type 1 group M subtype B, UniProt P04585, C555A/C583A/L521I/L551I/Q495K/V491I)
# Construct: Wild-type PR at final concentrations of 160-190 nM were added
# procedure text: biochemical
# Assay type: biochemical
# experimental context: wild-type PR, pH 5.0; read-out: Ki against HIV-1 protease
quantity name: Ki

compound	test result
CC(C)CN(C[C@@H](O)[C@H](Cc1ccccc1)NC(=O)O[C@@H]1C[C@@H]2CCO[C@@H]2C1)S(=O)(=O)c1ccc(CO)cc1 [GRL-06579A]	3.5 pM

###

# Tested on: 92UG029 (A-X4)
# procedure text: p24 Gag production inhibition, PHA-PBMs, subtype A isolate 92UG029
# Format: cell-based, HIV-1
# experimental context: Human immunodeficiency virus 1; PHA-PBMs, p24 Gag production; read-out: IC50 against 92UG029 (A-X4)
pIC50: −log10 of the molar value.
Parameter pIC50: see the listing below.

substance smiles	pIC50
CC(C)CN(C[C@@H](O)[C@H](Cc1ccccc1)NC(=O)O[C@H]1CCOC1)S(=O)(=O)c1ccc(N)cc1	7.34
CC(C)(C)NC(=O)[C@@H]1CN(Cc2cccnc2)CCN1C[C@@H](O)C[C@@H](Cc1ccccc1)C(=O)N[C@H]1c2ccccc2C[C@H]1O	7.36
Cc1cccc(C)c1OCC(=O)N[C@@H](Cc1ccccc1)[C@@H](O)C[C@H](Cc1ccccc1)NC(=O)[C@H](C(C)C)N1CCCNC1=O	8.15
CC(C)c1nc(CN(C)C(=O)N[C@H](C(=O)N[C@@H](Cc2ccccc2)C[C@H](O)[C@H](Cc2ccccc2)NC(=O)OCc2cncs2)C(C)C)cs1	7.15
